Cited source for all entries: ChEMBL document CHEMBL5303573

details: anaerostipes sp., 12 h, 2 µM
Description: The drug is tested on Anaerostipes sp. strain: fecal isolate for biotransformation. The drug concentrations were measured before and after a 12-h incubation by liquid-chromatography-coupled mass spectrometry (LC–MS)
Readout: Bacterial Biotransformation

Compound | Endpoint value
CN1CCN2c3ccccc3Cc3ccccc3C2C1 (stereo unspecified) [MIANSERIN] | Compound NOT metabolized
CCN(CC)CCNC(=O)c1ccc(NC(C)=O)cc1 [ACECAINIDE] | Compound NOT metabolized
CN1CCN(C2=Nc3ccccc3Oc3ccc(Cl)cc32)CC1.O=C(O)CCC(=O)O [LOXAPINE SUCCINATE] | Compound NOT metabolized
CCOC(=O)[C@H](CCc1ccccc1)N[C@@H](C)C(=O)N1[C@H](C(=O)O)C[C@@H]2CCC[C@@H]21 | Compound NOT metabolized
CC(=O)CCCCn1c(=O)c2c(ncn2C)n(C)c1=O [PENTOXIFYLLINE] | Compound NOT metabolized

###

assay: The drug is tested on Bacteroides fragilis strain: HMW610 for biotransformation. The drug concentrations were measured before and after a 12-h incubation by liquid-chromatography-coupled mass spectrometry (LC–MS); details: 2 µM
Readout: Bacterial Biotransformation

Molecule | Endpoint value
Cc1ccc(NC(=O)c2ccc(CN3CCN(C)CC3)cc2)cc1Nc1nccc(-c2cccnc2)n1 [IMATINIB] | Compound NOT metabolized
O=c1[nH]c2ccccc2n1CCCN1CCC(n2c(=O)[nH]c3cc(Cl)ccc32)CC1 [DOMPERIDONE] | Compound NOT metabolized
CC(O)(CS(=O)(=O)c1ccc(F)cc1)C(=O)Nc1ccc(C#N)c(C(F)(F)F)c1 (stereo not given) [BICALUTAMIDE] | Compound metabolized
CCCCc1nc(Cl)c(CO)n1Cc1ccc(-c2ccccc2-c2nn[nH]n2)cc1 [LOSARTAN] | Compound metabolized
COc1ccccc1OCC(O)CN1CCN(CC(=O)Nc2c(C)cccc2C)CC1 (stereo not given) [RANOLAZINE] | Compound NOT metabolized
C[C@H]1O[C@@H](O[C@H]2[C@@H](O)C[C@H](O[C@H]3[C@@H](O)C[C@H](O[C@H]4CC[C@@]5(C)[C@H](CC[C@@H]6[C@@H]5C[C@@H](O)[C@]5(C)[C@@H](C7=CC(=O)OC7)CC[C@]65O)C4)O[C@@H]3C)O[C@@H]2C)C[C@H](O)[C@@H]1O [DIGOXIN] | Compound metabolized
Cc1nc2n(c(=O)c1CCN1CCC(c3noc4cc(F)ccc34)CC1)CCCC2O (stereo not given) [PALIPERIDONE] | Compound NOT metabolized
CC(=O)Oc1ccc(C(c2ccc(OC(C)=O)cc2)c2ccccn2)cc1 [BISACODYL] | Compound metabolized
CCOC(=O)[C@H](CCc1ccccc1)N[C@H]1CCc2ccccc2N(CC(=O)O)C1=O [BENAZEPRIL] | Compound metabolized
COC1=C(OC)C(=O)C(CCCCCCCCCCO)=C(C)C1=O [IDEBENONE] | Compound metabolized
COc1ccc([C@@H]2Sc3ccccc3N(CCN(C)C)C(=O)[C@@H]2OC(C)=O)cc1 [DILTIAZEM] | Compound NOT metabolized
Cc1ccccc1N1C(=O)c2cc(S(N)(=O)=O)c(Cl)cc2NC1C (stereo not given) [METOLAZONE] | Compound NOT metabolized
C[C@@H](CO)NC(=O)[C@@H]1C=C2c3cccc4[nH]cc(c34)C[C@H]2N(C)C1.O=C(O)/C=C\C(=O)O [ERGONOVINE MALEATE] | Compound metabolized
CN(C)CCOC(C)(c1ccccc1)c1ccccn1.O=C(O)CCC(=O)O (stereo not given) [DOXYLAMINE SUCCINATE] | Compound NOT metabolized
CC[C@H](C)C(=O)O[C@H]1CCC=C2C=C[C@H](C)[C@H](CC[C@@H]3C[C@@H](O)CC(=O)O3)[C@H]21 [MEVASTATIN] | Compound NOT metabolized
Cc1ccc(S(=O)(=O)NC(=O)NN2CC3CCCC3C2)cc1 (stereo not given) [GLICLAZIDE] | Compound metabolized
COc1ccc(/C=C/C(=O)Nc2ccccc2C(=O)O)cc1OC | Compound metabolized
O=C1C(CC[S+]([O-])c2ccccc2)C(=O)N(c2ccccc2)N1c1ccccc1 (stereo not given) [SULFINPYRAZONE] | Compound metabolized
CN1CCN(C(=O)O[C@H]2c3nccnc3C(=O)N2c2ccc(Cl)cn2)CC1 [ESZOPICLONE] | Compound NOT metabolized
CN(C)CCC=C1c2ccccc2COc2ccccc21 [DOXEPIN] | Compound NOT metabolized

###

details: bacteroides fragilis, 12 h, 2 µM
Description: The drug is tested on Bacteroides fragilis strain: 3397 (T10) for biotransformation. The drug concentrations were measured before and after a 12-h incubation by liquid-chromatography-coupled mass spectrometry (LC–MS)

Compound | Bacterial Biotransformation
O=C(NCc1ccccc1)OCCO [BURAMATE] | Compound NOT metabolized
CN1C(C(=O)Nc2ccccn2)=C(O)c2sccc2S1(=O)=O [TENOXICAM] | Compound NOT metabolized
CC(CN1c2ccccc2Sc2ccccc21)N(C)C (centres undefined) [PROMETHAZINE] | Compound NOT metabolized
CCC(COC(=O)c1cc(OC)c(OC)c(OC)c1)(c1ccccc1)N(C)C.O=C(O)/C=C\C(=O)O (centres undefined) | Compound metabolized
COc1ccc2c3c1O[C@H]1C[C@@H](O)C=C[C@@]31CCN(C)C2 [GALANTAMINE] | Compound metabolized
CC(C)NCC(O)COc1ccc(COCCOC(C)C)cc1.CC(C)NCC(O)COc1ccc(COCCOC(C)C)cc1.O=C(O)/C=C/C(=O)O (centres undefined) [BISOPROLOL FUMARATE] | Compound NOT metabolized
CC(C)c1c(CN(C)C(C)Cc2ccccc2)n(C)n(-c2ccccc2)c1=O (centres undefined) [FAMPROFAZONE] | Compound metabolized
OC(CCN1CCCCC1)(c1ccccc1)C1CC2C=CC1C2 (centres undefined) [BIPERIDEN] | Compound NOT metabolized
CN(C)C(=O)Oc1cc(OC(=O)N(C)C)cc(C(O)CNC(C)(C)C)c1 (centres undefined) [BAMBUTEROL] | Compound NOT metabolized

###

settings: bacteroides thetaiotaomicron, 12 h, 2 µM
Description: The drug is tested on Bacteroides thetaiotaomicron strain: 7330 for biotransformation. The drug concentrations were measured before and after a 12-h incubation by liquid-chromatography-coupled mass spectrometry (LC–MS)

Compound | Bacterial Biotransformation
Cc1ccnc2c1NC(=O)c1cccnc1N2C1CC1 | Compound NOT metabolized
C=CCN1CC[C@]23c4c5ccc(O)c4O[C@H]2C(=O)CC[C@@]3(O)[C@H]1C5 | Compound metabolized
CC(C)c1nc(CN(C)C(=O)N[C@H](C(=O)N[C@@H](Cc2ccccc2)C[C@H](O)[C@H](Cc2ccccc2)NC(=O)OCc2cncs2)C(C)C)cs1 | Compound NOT metabolized
C#C[C@]1(OC(C)=O)CC[C@H]2[C@@H]3CCC4=CC(=O)CC[C@@H]4[C@H]3CC[C@@]21C [NORETHINDRONE ACETATE] | Compound metabolized
CS(=O)(=O)O.OC(CCN1CCCCC1)(c1ccccc1)c1ccccc1 [PRIDINOL METHANESULFONATE] | Compound NOT metabolized
CCN(CC)CCOCCOC(=O)C1(c2ccccc2)CCCC1.O=C(O)CC(O)(CC(=O)O)C(=O)O [CARBETAPENTANE CITRATE] | Compound metabolized
OC(CCN1CCCCC1)(c1ccccc1)C1CC2C=CC1C2 (stereo unspecified) | Compound NOT metabolized
CCc1nc(N)nc(N)c1-c1ccc(Cl)cc1 | Compound NOT metabolized
CCOC(=O)C1=C(C)NC(C)=C(C(=O)OC)C1c1cccc([N+](=O)[O-])c1 (stereo unspecified) | Compound metabolized
COCCCC/C(=N\OCCN)c1ccc(C(F)(F)F)cc1.O=C(O)/C=C\C(=O)O [FLUVOXAMINE MALEATE] | Compound metabolized
CC(=O)OCC(=O)[C@@]12N=C(C)O[C@@H]1C[C@H]1[C@@H]3CCC4=CC(=O)C=C[C@]4(C)[C@H]3[C@@H](O)C[C@@]12C | Compound metabolized

###

settings: bacteroides thetaiotaomicron, 12 h, 2 µM
Readout: Bacterial Biotransformation

Compound | Readout | Endpoint value
Cc1ccc(S(=O)(=O)NC(=O)NN2CC3CCCC3C2)cc1 (stereo not given) [GLICLAZIDE] | Bacterial Biotransformation | Compound NOT metabolized
CCN(CC)CCNC(=O)c1cc(Cl)c(N)cc1OC [METOCLOPRAMIDE] | Bacterial Biotransformation | Compound NOT metabolized
CCCCC1=NC2(CCCC2)C(=O)N1Cc1ccc(-c2ccccc2-c2nnn[nH]2)cc1 | Bacterial Biotransformation | Compound metabolized
CCOc1ccc(NC(C)=O)cc1 | Bacterial Biotransformation | Compound NOT metabolized
CC(=O)CCCCn1c(=O)c2c(ncn2C)n(C)c1=O | Bacterial Biotransformation | Compound NOT metabolized
CC(=O)SCC(Cc1ccccc1)C(=O)NCC(=O)OCc1ccccc1 (stereo not given) | Bacterial Biotransformation | Compound metabolized
C[N+]12CCC(CC1)C(OC(=O)C(O)(c1ccccc1)c1ccccc1)C2.[Br-] (stereo not given) [CLIDINIUM BROMIDE] | Bacterial Biotransformation | Compound NOT metabolized
Br.COc1ccc2c(c1)[C@]13CCCC[C@@H]1[C@H](C2)N(C)CC3.O [DEXTROMETHORPHAN HYDROBROMIDE] | Bacterial Biotransformation | Compound NOT metabolized
CN(C)CCC=C1c2ccccc2COc2ccccc21 [DOXEPIN] | Bacterial Biotransformation | Compound NOT metabolized
C#C[C@]1(OC(C)=O)CC[C@H]2[C@@H]3CCC4=C[C@@H](OC(C)=O)CC[C@@H]4[C@H]3CC[C@@]21C [ETHYNODIOL DIACETATE] | Bacterial Biotransformation | Compound NOT metabolized
